Tested on: MILI (PIWIL2) piRISC loaded with piRNA #1 (26 nt);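 note: 1 nM active piRISC with 0.1 nM target library at 33 °C single turnover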
Test: pre-steady-state target cleavage rate (min^-1); guide: piRNA #1 5'p-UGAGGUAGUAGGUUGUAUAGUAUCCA; MIWI and MILI are mouse PIWI proteins and EfPiwi is from a freshwater sponge; tags in brackets are library labels; higher = faster piRNA-guided slicing of the target
Details: auxiliary factor: 500 nM mouse GTSF1
parameter: pre-steady-state target cleavage rate
Simply state the number, no unit and no words.

GGAGUGGGUACUAUACAACCUACUACCUCA	0.148
GGAGACGAUACAAUACAACCAACUACCUCA	0.0105

pre-steady-state target cleavage rate lookup needed for GGAGAGGAUACAAUUCAACCUACUACCUCA , thanks.
0.174
